Source: ChEMBL document CHEMBL5236613

Recorded Metric: pKi
Quick note: pKi means taking -log10 of the concentration in moles per liter.

// query Notebook entry, Carbonic anhydrase 9 (Homo sapiens, UniProt Q16790) assay: pKi of NS(=O)(=O)c1ccc(-n2cc(COC(=O)c3ccc4c(c3)C(=O)N(c3ccccc3I)C4=O)nn2)cc1 = ?
// result 7.45

// query Notebook entry, Carbonic anhydrase 9 (Homo sapiens, UniProt Q16790) assay: pKi of CCCCCCCCN1C(=O)c2ccc(C(=O)OCc3cn(-c4ccc(S(N)(=O)=O)cc4)nn3)cc2C1=O = ?
// result 7.30

// query Notebook entry, Carbonic anhydrase 9 (Homo sapiens, UniProt Q16790) assay: pKi of NS(=O)(=O)c1ccc(-n2cc(COC(=O)c3ccc4c(c3)C(=O)N(c3cccc(F)c3)C4=O)nn2)cc1 = ?
// result 7.64

// query Notebook entry, Carbonic anhydrase 9 (Homo sapiens, UniProt Q16790) assay: pKi of NS(=O)(=O)c1ccc(-n2cc(COC(=O)c3ccc4c(c3)C(=O)N(Cc3ccc5c(c3)OCO5)C4=O)nn2)cc1 = ?
// result 7.62

// query Notebook entry, Carbonic anhydrase 9 (Homo sapiens, UniProt Q16790) assay: pKi of NS(=O)(=O)c1ccc(-n2cc(COC(=O)c3ccc4c(c3)C(=O)N(c3ccccc3Cl)C4=O)nn2)cc1 = ?
// result 7.73

// query Notebook entry, Carbonic anhydrase 9 (Homo sapiens, UniProt Q16790) assay: pKi of CCCCCCN1C(=O)c2ccc(C(=O)OCc3cn(-c4ccc(S(N)(=O)=O)cc4)nn3)cc2C1=O = ?
// result 7.12
